test system: T1, CRBN, Q96SW2;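 also: pooled lentiviral library of zinc finger degron-EGFP fusions in mCherry-positive Jurkat cells, FACS-sorted after compound exposure, with degron abundance counted by next-generation sequencing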
T1 chain: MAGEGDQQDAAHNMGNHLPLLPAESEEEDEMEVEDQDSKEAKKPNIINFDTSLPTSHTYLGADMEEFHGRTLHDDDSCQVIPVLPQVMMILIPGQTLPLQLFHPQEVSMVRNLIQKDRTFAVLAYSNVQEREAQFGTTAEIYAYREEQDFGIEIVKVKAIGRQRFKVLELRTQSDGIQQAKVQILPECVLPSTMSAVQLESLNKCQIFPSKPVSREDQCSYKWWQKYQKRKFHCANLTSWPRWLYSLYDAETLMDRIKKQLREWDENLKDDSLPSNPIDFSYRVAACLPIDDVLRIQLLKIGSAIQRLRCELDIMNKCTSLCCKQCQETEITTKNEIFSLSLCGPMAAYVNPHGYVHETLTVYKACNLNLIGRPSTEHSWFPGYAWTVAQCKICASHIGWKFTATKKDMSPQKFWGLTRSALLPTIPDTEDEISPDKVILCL
experiment notes: log2 fold change of degron read counts, EGFP-low vs EGFP+ sorted cells (limma voom), compound-induced degradation; higher = more compound-induced degradation of the degron-EGFP fusion; degrons are variants of IKZF1/3 zinc finger 2; compound dose not given here
assay setup: Jurkat; 18 h; compound: thalidomide
Over roughly 8,300 sequences, “log2 fold change of degron read counts, EGFP-low vs EGFP+ sorted cells (limma voom), compound-induced degradation” has its median near -1.1; the highest 2% begin near 3.2. The sample as a whole holds a higher share of the highest values than the screen did.
Give log2 fold change of degron read counts for every item shown.
Give bare numbers.

These recorded examples may help you get a feel for the data.
Request the reported log2 fold change of degron read counts associated with FYCNICGANFTQKGNLLRHIKL [46F_47Y_49N_50I_52G_53A_54N_55F_67L_, Q9UKT9]
0.00754

State the recorded log2 fold change of degron read counts for this entry: FDCPICGAVFTQKGNLLRHIKL [46F_47D_49P_50I_52G_53A_54V_55F_67L_, Q9UKT9]
1.81

Field request: log2 fold change of degron read counts | item: FLCPVCGANFTQKGNLLRHIKL [46F_47L_49P_50V_52G_53A_54N_55F_67L_, Q9UKT9]
1.54

Please report log2 fold change of degron read counts for every entry that follows.
1. FTCEICGRFFTQKGNLLRHIKL [46F_47T_49E_50I_52G_53R_54F_55F_67L_, Q9UKT9]
2. FRCNQCGRVFTQKGNLLRHIKL [46F_47R_49N_50Q_52G_53R_54V_55F_67L_, Q9UKT9]
3. FQCNVCGAVFTQKGNLLRHIKL [46F_47Q_49N_50V_52G_53A_54V_55F_67L_, Q9UKT9]
4. FVCPVCGANFTQKGNLLRHIKL [46F_47V_49P_50V_52G_53A_54N_55F_67L_, Q9UKT9]
5. FECNICGANFTQKGNLLRHIKL [46F_47E_49N_50I_52G_53A_54N_55F_67L_, Q9UKT9]

1. -1.11
2. -1.61
3. 3.41
4. 2.77
5. 2.22
